B1: HDV Ribozyme (parent)
chain: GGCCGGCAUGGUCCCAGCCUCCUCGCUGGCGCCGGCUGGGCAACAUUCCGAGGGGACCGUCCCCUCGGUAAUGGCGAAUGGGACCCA

# Variants of: B1
# Procedure text: self-cleavage, relative activity (ratio to wild type); higher = more cleavage; co-transcriptional
Respond with yes (1) for self-cleavage values of 0.2 and above, no (0) for values below.

## Input self-cleavage >= 0.2 for GGCCGGCAUGGUCCCAGCCGCCUCGCUGGCGCCGGCUGGGCAACAUUCCGAGGGGACCGUCCCCUCAGUAAUGGCGAAUGGGACCCA [U20G G67A] ?
## Output no (0)

## Input Check if self-cleavage >= 0.2 (inclusive). Item: GGCGGGCAUGGUCCCAGCCUCCUCGCUGGCGCCGACUGGGCAACAUUCCGAGGGGACCGUCCCCUCGGUAAUGGCGAAUGGGACCCA [C4G G35A]
## Output no (0)

## Input In plain terms: is recorded self-cleavage at least 0.2 for GGCCGGCAUGGUCCCAGCCUACUCGCUGGCGCCGGCUGGGCAACAUUCCGAGGGGACCGUCCCCUCGGUAAUGGCGAAUGGGACCAA [C21A C86A] ?
## Output no (0)

## Input Textbook exercise: given the entry AGCCGGCAUGGUCCCAGCCUCCUCGCUGGCGCCGGCUGGGCAACAUUCCGAGGGGACCGUCCCUUCGGUAAUGGCGAAUGGGACCCA [G1A C64U] , state whether its self-cleavage is greater than or equal to 0.2.
## Output no (0)

## Input Assess whether reported self-cleavage for GGCCGGAAUGGUCCCAGCCUCCUCGCUGGCGCCGGCUGGGCAACAUUCCGAGGGGACCGUCCCCUCGGUAAUGGCGAAUGGGAACCA [C7A C84A] sits at 0.2 or higher.
## Output yes (1)

## Input Check if self-cleavage >= 0.2 (inclusive). Item: GGCCGGCAUGGUCCCAGCCUCCUUGCUGGCGCCGGCUGGGCAACAUUCCGAGGGGACCGUCCCCUCGGUAAUGGCGAAUGGGACCUA [C24U C86U]
## Output yes (1)

## Input Check if self-cleavage >= 0.2 (inclusive). Item: GGCCGGCAUGGUCCCAGCCUCCUCGCUGGCGCCGGGUGGGCAACAUUCCGAGGGGACCGUCCUCUCGGUAAUGGCGAAUGGGACCCA [C36G C63U]
## Output yes (1)

## Input Check if self-cleavage >= 0.2 (inclusive). Item: GGCCGGCAUCGUCCCAGCAUCCUCGCUGGCGCCGGCUGGGCAACAUUCCGAGGGGACCGUCCCCUCGGUAAUGGCGAAUGGGACCCA [G10C C19A]
## Output no (0)

## Input Item GGCCGGCAUGGUCCCAGCCUCCUCGCUGGCGCCGGCUGGGCAAUAUUCCGAGGGGACCGUGCCCUCGGUAAUGGCGAAUGGGACCCA [C44U C61G] with self-cleavage of 0.2 or above?
## Output yes (1)

## Input hey, is self-cleavage for this one >= 0.2? GGCCGGCAUGGUCCCAGCCUCCUCGCUGGCGCCGGCUGGGCAAAAUUCCGAUGGGACCGUCCCCUCGGUAAUGGCGAAUGGGACCCA [C44A G52U]
## Output yes (1)
